systemUnderTest: sodium channel site 2 binding site (neuronal voltage-gated sodium channel)
assayName: [3H]-BTX-B binding
testConditions: read-out: observed (actual) IC50, [3H]-BTX
measure: IC50 (µM)

molecule: CCCCCCCC(O)(C(N)=O)c1cc(C)c(NC(=O)CN(CC)CC)c(C)c1 (stereo not shown)
testValue: 6
//
molecule: CCCCCCCC1(c2cc(C)c(NC(=O)CN(CC)CC)c(C)c2)NC(=O)NC1=O (stereo not shown)
testValue: 13.5
